Test system: KM12
Test: NCI tumour cell line growth inhibition, 48 h
Calls of active or inactive are those of the source. Cut-off read from the data, not from the text of the source: active = GI50 up to about 1.1 µM and inactive = higher.
Entry note: the call must match one of active, inactive

Example entries begin here.
[
  {
    "molecule": "CN(C)c1ccc(/C=C2\\C[C@H]3[C@@H]4CC=C5C[C@@H](O)CC[C@]5(C)[C@H]4CC[C@]3(C)C2=O)cc1",
    "class.label": "inactive"
  },
  {
    "molecule": "COc1ccccc1/C=C/c1ccnc2ccccc12",
    "class.label": "inactive"
  },
  {
    "molecule": "COc1cccc2c1C(=O)c1c(O)c3c(c(O)c1C2=O)C[C@@](O)(C(=O)CO)C[C@@H]3OC1CC(N(C)C)C(O)C(C)O1 (stereo not given in full)",
    "class.label": "active"
  },
  {
    "molecule": "C1CCN(c2nc(=[N+]3CCCCC3)ss2)CC1",
    "class.label": "inactive"
  }
]

Note: attention shifts to another entry.
Short answer needed: outcome of this test for CC/C(Cl)=N\OC(=O)Nc1ccc(OC)cc1 ?
inactive

###

Tested on: RXF 393
Experiment: NCI tumour cell line growth inhibition, 48 h
Active and inactive are the calls of the source. Rule as the data show it: active = GI50 up to about 1.1 µM and inactive = higher.
I'd be grateful if you could share measured GI50 for these entries.

Recorded GI50, per entry:
[
  {
    "molecule": "CC(=O)N[C@H]1CCCC[C@@H]1OC(C)=O",
    "GI50": "> 100 µM (inactive)"
  },
  {
    "molecule": "C1CSCCCSCCSCCCSC1",
    "GI50": "> 100 µM (inactive)"
  }
]

// each listed molecule needs a value for GI50
1. O=C1OC(=O)c2c1nc1ccccc1c2-c1ccccc1
2. CSc1cc(C(C)(C)C)ccc1C(O)c1ccc(C(C)(C)C)cc1SC

1. > 100 µM (inactive)
2. 12.1 µM (inactive)

###

System: PC-3
Assay: NCI tumour cell line growth inhibition, 48 h
Calls of active or inactive are those of the source. Cut-off read from the data, not from the text of the source: active = GI50 up to about 1.1 µM and inactive = higher.
Entry note: the call must match one of active, inactive

Example entries begin here.
[
  {
    "molecule": "COc1cccc(C[C@H]2COC(=O)[C@]2(O)Cc2cccc(OC)c2)c1",
    "class.label": "inactive"
  },
  {
    "molecule": "CC(=O)N(CCc1ccccc1)C(C)(C#N)c1ccccc1 (stereo unspecified)",
    "class.label": "inactive"
  },
  {
    "molecule": "CC(=O)Nc1ccc(-c2nc3ccccc3s2)cc1Br",
    "class.label": "inactive"
  },
  {
    "molecule": "COc1cccc2c(N)c3cccc(C(=O)NCCN(C)C)c3nc12",
    "class.label": "active"
  },
  {
    "molecule": "O=[N+]([O-])c1nccn1CCCNc1c2ccccc2[n+]([O-])c2ccccc12",
    "class.label": "inactive"
  }
]

Short answer needed: outcome of this test for CCCCCCCCCCCCCCCCCCN(C)CC(COP(=O)([O-])OCC[N+](C)(C)C)OC (stereo unspecified) ?
inactive

Short answer needed: outcome of this test for S=C(Nc1ccc2c(c1)oc1ccccc12)c1cccnc1 ?
inactive

Short answer needed: outcome of this test for Fc1ccc(OCc2nc3cc(C(F)(F)F)ccc3nc2-c2ccccc2)cc1 ?
inactive

Short answer needed: outcome of this test for O=C(Nc1ccc(Cl)cc1Cl)C1C(=O)OC2(CCCCC2)OC1=O ?
inactive

Short answer needed: outcome of this test for COc1c(OC)c(OC)c2c(c1OC)c(=O)c1ccccc1n2C ?
inactive

Short answer needed: outcome of this test for O=Cc1ccc(OC[C@H]2COC(=O)N2)cc1 ?
inactive
